- tested-system: T1, HPV 16 E6(29-38)-peptide-MHC tetramer complex (human papillomavirus 16 (HPV16); human)
- T1 construct: also called E6(29-38)-specific tetramer
- test: flow cytometry, peptide-MHC tetramer staining of TCR-transduced primary human T cells;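 also: normal donor T cells activated with anti-CD3/anti-CD28, then lentivirally transduced with TCRs, with mock-transduced cells as control, co-stained for the transduction marker and CD8, tetramers presented by HLA-A02:01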
value-kind: % of CD8- (CD4+) cells positive for E6(29-38) tetramer staining (%)
// note: answer is a bare numeric in %

{"columns": ["binder", "val"],
 "data": [
  ["TCR 64 (mouse constant regions) (TCR, V domains shown) V domain 1: AQKVTQAQTEISVVEKEDVTLDCVYETRDTTYYLFWYKQPPSGELVFLIRRNSFDEQNEISGRYSWNFQKSTSSFNFTITASQVVDSAVYFCALSGVDNYGQNFVFGPGTRLSVLP V domain 2: DTAVSQTPKYLVTQMGNDKSIKCEQNLGHDTMYWYKQDSKKFLKIMFSYNNKELIINETVPNRFSPKSPDKAHLNLHINSLELGDSAVYFCASSQGEAGANVLTFGAGSRLTVLE", 0.11]
]}

Moving on to another binder below.
In: Dear colleague, please send me the reported % of CD8- (CD4+) cells positive for E6(29-38) tetramer staining for TCR 60 (mouse constant regions) (TCR, V domains shown) V domain 1: QKEVEQNSGPLSVPEGAIASLNCTYSDRGSQSFFWYRQYSGKSPELIMFIYSNGDKEDGRFTAQLNKASQYVSLLIRDSQPSDSATYLCAVNMLGSGGSNYKLTFGKGTLLTVNP V domain 2: EPEVTQTPSHQVTQMGQEVILRCVPISNHLYFYWYRQILGQKVEFLVSFYNNEISEKSEIFDDQFSVERPDGSNFTLKIRSTKLEDSAMYFCAISRTVSYEQYFGPGTRLTVTE when you can.
Out: 0.07

The measured values listed here are drawn from patent US20190321401A1.
